B1: Ankyrin-2, residues 3571 to 3650; numbered along this chain, Q01484 (parent)
chain: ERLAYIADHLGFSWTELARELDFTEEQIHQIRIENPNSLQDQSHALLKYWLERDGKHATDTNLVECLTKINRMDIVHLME

variants of: B1; experiment: abundance fitness (aPCA) (normalised: wild type 0, dead -1); higher = more abundant; growth selection in yeast, the domain comes from the species named; details: Homo sapiens
Label 1 for high-side abundance fitness (at or above -0.2) and 0 for low-side abundance fitness (below it).

Example entries and their recorded answers appear below.
**Query** Is abundance fitness at least -0.2? Consider D22C
**Result** 1

**Query** Is abundance fitness at least -0.2? Consider R32A
**Result** 1

**Query** Is abundance fitness at least -0.2? Consider Q40C
**Result** 1

***
**Query** Is abundance fitness at least -0.2? Consider R32M
**Result** 1

**Query** Is abundance fitness at least -0.2? Consider H57V
**Result** 1

**Query** Is abundance fitness at least -0.2? Consider E20T
**Result** 1
